Assay: Inhibition of microbial xanthine oxidase by spectrophotometry
pIC50: −log10 of the molar value.
pIC50 values for the molecules below.
observation type: pIC50

* Cc1cc(=O)n2nc(COc3ccccc3C)sc2n1 | 6.46
* Cc1cc(=O)n2nc(COc3ccc(Cl)cc3)sc2n1 | 6.37
* Cc1ccc(OCc2nn3c(=O)cc(C)nc3s2)cc1 | 6.08
* Cc1cc(=O)n2nc(COc3ccc(Cl)c(C)c3)sc2n1 | 6.22

* * *

Target or system Xanthine dehydrogenase/oxidase (Rattus norvegicus, UniProt P22985): recorded pIC50 listed per item.
pIC50: −log10 of the molar value.
observation type: pIC50

- Cc1cc(=O)n2nc(COc3cccc(F)c3)sc2n1: 5.70
- Cc1cccc(OCc2nn3c(=O)cc(C)nc3s2)c1: 5.97
- Cc1cc(=O)n2nc(COc3cccc(Cl)c3)sc2n1: 5.21
- Cc1cc(=O)n2nc(COc3ccccc3F)sc2n1: 6.23
- COc1ccc(OCc2nn3c(=O)cc(C)nc3s2)cc1: 6.54
- Cc1cc(=O)n2nc(COc3ccccc3Cl)sc2n1: 5.74
- Cc1cc(=O)n2nc(COc3cccc(Br)c3)sc2n1: 5.59
- Cc1cc(=O)n2nc(COc3ccccc3)sc2n1: 6.26

The reported numbers originate from ChEMBL document CHEMBL1641429.
